Target: T1, Human IL-33 Flag®His (human)
T1 construct: Mature IL-33 with C-terminal FLAG 10xHis tag, from E. coli; biotinylated via free cysteines where used biotinylated; also called Mature Human IL-33_FH; human IL-33 FH
T1 chain: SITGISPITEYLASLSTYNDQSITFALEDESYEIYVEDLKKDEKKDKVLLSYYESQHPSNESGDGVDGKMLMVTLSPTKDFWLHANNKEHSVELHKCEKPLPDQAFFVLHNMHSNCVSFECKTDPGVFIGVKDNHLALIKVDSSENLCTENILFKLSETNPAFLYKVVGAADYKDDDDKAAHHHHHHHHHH
Experiment: HTRF competition, IgG titrated against biotinylated human ST2-Fc
Protocol: The ability of anti-IL-33 antibodies to inhibit the binding of FLAG®-His tagged IL-33 to the ST2 receptor was assessed in a biochemical HTRF® (Homogeneous Time-Resolved Fluorescence, Cisbio International) competition assay, the principles of which are described above. Activity of purified IgG preparations were determined by competing a dilution series of the purified IgG against biotinylated human or mouse ST2.Fc for binding to FLAG® His-tagged human, cynomolgus or mouse IL-33. […]
READOUT_KIND: IC50 (nM)
Answer format: numeric, nM implied, no suffix.

# BINDER, VALUE
rows = [
    ("IL330020 IgG1 (antibody, V domains shown, Human IgG1, lambda constant) VH: QVQLVQSGAEVKKPGASVKVSCKASGYTFTSYGISWVRQAPGQGLEWMGWISDYQGYTKYAEKFQGRVTMTTDTSTNTAYMELRSLRSDDTAVYYCARLYSSGWIRQYHFDYWGRGTLVTVSS VL: SYELTQPPSVSVSPGQTASITCSGDNLKDKYVSWYQQKPGQAPVLVLYQDRKRPSGIPERFSGSNSGNTATLTISGTQAMDEADYYCQAWDSGTAFGGGTKVTVL", 40),
    ("IL330071 IgG1 (antibody, V domains shown, Human IgG1, lambda constant) VH: EVQLVESGAEVKQPGASVKVSCKASGYTFTSYGISWVRQAPGQGLEWMGWISAYNGNTNYAQKLQGRVTMTTDTSTSTAYMELRSLRSDDTAVYYCARRGFYHDAFDIWGRGTTVTVSS VL: AIQLTQSPSSLSASVGDRVTITCRASQGISNYLAWYQQKPGKVPKLLIYAASTLQSGVPSRFSGSGSGTEFTLTISSLQPDDFATYYCQQYNSYSVTFGQGTKVEIK", 59),
    ("IL330126 IgG1 (antibody, V domains shown, Human IgG1, lambda constant) VH: EVQLVQSGAELKKPGASVKVSCKTSGYSFNTYGISWVRQAPGQGLEWMGWVSGDDGNINYAEKFQGRVAMTTDTSTTTAYMELWSLTSDDTAVYYCARVRRGSGWYKNYHYYMDVWGQGTMVTVSS VL: QSVLTQPPSVSVSPGQTASVTCSGDRLGDKYASWYQQKPGQSPVLVIYQDRKRPSGIPERFSGSNSGNTATLTISGTQAMDEADYYCQAWDGSTALFGGGTKLTVL", 226),
]

In the following, a different binder is considered.
Which IC50 is reported for this binder? IL330125 IgG1 (antibody, V domains shown, Human IgG1, lambda constant) VH: EVQLVQSGAEVKKPGASVTVSCKASGYSFTDYYIHWVRQAPGQGPEWMGWINPNSGVTDFAQKFLGRVTMTRDTSISTAYMELSRLTSDDTALYYCARVAFVYYDSSAFQYWGKGTLVTVSS VL: LPVLTQPPSVSVSPGQTATITCSADKLGDKYAAWYQQKPGQSPVLVIYQDRKRPSGIPERFSGSNSGNTATLIISGTQAMDEADYYCQAWDSNTGLYVFGTGTKLTVL 210
